Recorded Z-score for the following compounds
System: ATGL-KO iPSCs
EXPERIMENT_NOTES: High throughput iPSC chemical screening, Oil Red O (ORO) lipid accumulation; further: test concentration or dose not given here
Assay type: cell-based, mouse
Counter-ions that a name gives are not always drawn.

# COMPOUND, Z-score
rows = [
    ("CC(=C(CCO)SSCC1CCCO1)N(C=O)Cc1cnc(C)nc1N (stereo in doubt) [Fursultiamine Hydrochloride]", "−0.696"),
    ("CN1CCc2cccc3c2[C@H]1Cc1ccc(O)c(O)c1-3.CN1CCc2cccc3c2[C@H]1Cc1ccc(O)c(O)c1-3.Cl.Cl.O", "−0.2622"),
    ("C[C@]12CC[C@H](O)C[C@@H]1CC[C@@H]1[C@@H]2CC[C@]2(C)C(=O)CC[C@@H]12 [Epiandrosterone]", "−0.835"),
    ("COc1cc2c(c(OC)c1OC)-c1ccc(OC)c(=O)cc1[C@@H](NC(C)=O)CC2 [Colchicine]", 35.6417),
    ("CC(C)(C)CC(C)(C)c1ccc(OCCOCC[N+](C)(C)Cc2ccccc2)cc1 [Benzethonium chloride]", 8.105),
    ("C[C@]12CC[C@@H](O)C[C@H]1CC[C@@H]1[C@@H]2CC[C@]2(C)C(=O)CC[C@@H]12 [3-alpha-Hydroxy-5-beta-androstan-17-one]", "−0.187"),
    ("CNC(=O)Oc1ccc2c(c1)[C@]1(C)CCN(C)[C@@H]1N2C.CNC(=O)Oc1ccc2c(c1)[C@]1(C)CCN(C)[C@@H]1N2C.O=S(=O)(O)O [Eserine sulfate, physostigmine sulfate]", 0.899),
    ("Oc1ccc2c3c1O[C@H]1[C@@H](O)CC[C@@]4(O)[C@@H](C2)N(CC2CCC2)CC[C@]314 [Nalbuphine hydrochloride]", "−1.0996"),
    ("CC(C)c1cccc(C(C)C)c1O [Propofol]", "−0.9649"),
    ("Cc1c(C)c2c(c(C)c1O)CC[C@@](C)(CCC[C@H](C)CCC[C@H](C)CCCC(C)C)O2 [Tocopherol (R,S)]", "−1.721"),
    ("C[n+]1ccccc1/C=N/O [Pralidoxime chloride]", 1.281),
    ("C[C@]12CC[C@@H](O)C[C@@H]1CC[C@@H]1[C@@H]2CC[C@]2(C)C(=O)CC[C@@H]12 [Androsterone]", 1.156),
    ("CN[C@H](CC(C)C)C(=O)N[C@H]1C(=O)N[C@@H](CC(N)=O)C(=O)N[C@H]2C(=O)N[C@H]3C(=O)N[C@H](C(=O)N[C@H](C(=O)O)c4cc(O)cc(O)c4-c4cc3ccc4O)[C@H](O)c3ccc(c(Cl)c3)Oc3cc2cc(c3O[C@@H]2O[C@H](CO)[C@@H](O)[C@H](O)[C@H]2O[C@H]2C[C@](C)(N)[C@H](O)[C@H](C)O2)Oc2ccc(cc2Cl)[C@H]1O [Vancomycin hydrochloride]", "−0.5906"),
]
